So I've got a bunch of molecules here, and I need their %Inh values.
Test system: MYO3A
Measurement Conditions: concentration: 1 μM, replicates: in singlicate; n = 1
Form entry: value (%) — number only.

Determine from records and report %Inh for COC(=O)C(Cc1ccccc1)NC(=O)NC1CCN(c2ccnc(Nc3ccc(F)cc3)n2)C1 (stereo not shown)
0

Determine from records and report %Inh for Fc1ccc(-c2nc[nH]c2-c2ccncc2)cc1
0

Determine from records and report %Inh for COc1nccc(-c2c(-c3ccc(F)cc3)ncn2CCCN2CCOCC2)n1
5

Determine from records and report %Inh for COc1cc2ncnc(Nc3cccc(Br)c3)c2cc1OC.Cl
20

Determine from records and report %Inh for COc1ccc(CSc2nnc(-c3ccc4ncsc4c3)o2)cc1C(F)(F)F
15

Determine from records and report %Inh for Cc1ccc(NC(=O)Nc2ccccc2F)cc1-c1ccc(C(=O)Nc2ccncc2)cc1
19

Determine from records and report %Inh for CCn1c(-c2c(N)noc2C)nc2cnccc21
16

Determine from records and report %Inh for FC(F)(F)c1ccccc1-c1cc(-c2c[nH]nc2-c2ccccn2)ccn1
10

Determine from records and report %Inh for CC[C@@H]1CO[C@H](C(=O)Nc2ccccc2)CN1c1cc(-c2ccc3c(N)n[nH]c3c2)nc(NC)n1
19

Determine from records and report %Inh for Cc1ccc(NC(=O)Nc2ccccc2)cc1-c1ccc(C(=O)Nc2ccncc2)cc1
0

Determine from records and report %Inh for COc1cccc(CNC(=O)NC2CCN(c3ccnc(Nc4ccc(F)cc4)n3)C2)c1 (stereo not shown)
0

Determine from records and report %Inh for COc1ccc(CSc2nnc(-c3ccc4c(c3)CCO4)o2)cc1
0

Determine from records and report %Inh for CCc1ccc(-c2ccc3c(c2)-c2n[nH]cc2S(=O)(=O)N3C)cc1
19

Determine from records and report %Inh for Cl.Cl.Cl.N#Cc1ccc(CCNc2nccc(-c3cccc(CN4CCNCC4)c3)n2)cc1
2

Determine from records and report %Inh for Fc1ccc(-c2nc3n(c2-c2ccncc2)CCS3)cc1
12

Determine from records and report %Inh for O=C1NC(=O)C(c2ccc(Cl)cc2)=C1Nc1cccc(Cl)c1
5

Determine from records and report %Inh for Cc1cccc2c(-c3ccncn3)c(-c3ccc(F)cc3)nn12
0

Determine from records and report %Inh for O=c1cc(N2CCOCC2)nc2n(Cc3ccccc3F)ccn12
13

Determine from records and report %Inh for Cc1ccccc1Cn1ccn2c(=O)cc(N3CCOCC3)nc12
7

Determine from records and report %Inh for Nc1ncnc2occ(-c3ccc4c(c3)CCN4C(=O)Cc3cc(F)ccc3F)c12
26

Determine from records and report %Inh for CC(C)c1ccc(O)cc1Nc1ccnc2ccc(C(F)(F)F)cc12
0

Determine from records and report %Inh for Cc1ccccc1-c1cc(-c2c[nH]nc2-c2ccccn2)ccn1
0

Determine from records and report %Inh for COc1ccc(Nc2nccc(N3CCC(NC(=O)C(C)c4ccc(Cl)cc4)C3)n2)cc1 (stereo not shown)
0

Determine from records and report %Inh for COc1cccc(C2=C(Nc3cc(Cl)c(O)c(Cl)c3)C(=O)NC2=O)c1
0

Determine from records and report %Inh for Cc1cnc(N)c(/C=C/c2cncc(C(=O)NCCc3ccc(Cl)cc3Cl)c2)c1.Cl
6

Determine from records and report %Inh for CSc1ccc(-c2nc3n(c2-c2ccncc2)CCC3)cc1
1

Determine from records and report %Inh for CC(=O)c1c(C)c2cnc(Nc3ccn(C)n3)nc2n(C2CCCC2)c1=O
0

Determine from records and report %Inh for Cc1ccc(NC(=O)Nc2ccc(Cl)cc2)cc1-c1ccc(C(=O)Nc2ccncc2)cc1
22

----------
So I've got a bunch of compounds here, and I need their %Inh values.
Tested on: MAP3K3
Measurement Conditions: concentration: 1 μM, replicates: in singlicate; n = 1
Form entry: value (%) — number only.

Determine from records and report %Inh for Cl.Cl.Cl.N#Cc1ccc(CCNc2nccc(-c3cccc(CN4CCNCC4)c3)n2)cc1
0

Determine from records and report %Inh for COC(=O)C(NC(=O)NC1CCN(c2ccnc(Nc3ccc(F)cc3)n2)C1)c1ccccc1 (centres unmarked)
0

Determine from records and report %Inh for Fc1ccc(-c2nn3cccc(F)c3c2-c2ccncc2)cc1
0

Determine from records and report %Inh for O=C(Nc1n[nH]c2nc(-c3cccs3)c(Br)cc12)C1CC1
36

Determine from records and report %Inh for Cc1cnc(N)c(/C=C/c2cncc(C(=O)NCCc3ccc(Cl)cc3Cl)c2)c1.Cl
0

Determine from records and report %Inh for COC(=O)c1cccc(NC(=O)NC2CCN(c3ccnc(Nc4ccc(OC)cc4)n3)C2)c1 (centres unmarked)
0

Determine from records and report %Inh for Fc1ccc(-c2nc3n(c2-c2ccncc2)CCS3)cc1
0

Determine from records and report %Inh for COc1cc2ncnc(Nc3cccc(Br)c3)c2cc1OC.Cl
29

Determine from records and report %Inh for Cn1cncc1C(=O)NC1CCN(c2ccnc(Nc3ccc(F)cc3)n2)C1 (centres unmarked)
0

Determine from records and report %Inh for CCn1c(-c2ccccc2)nc2cnccc21
0

Determine from records and report %Inh for COc1ccc(CSc2nnc(-c3ccc4nccn4c3)o2)cc1C(F)(F)F
9

----------
Tested on: TAOK2
Measurement Conditions: concentration: 1 μM, replicates: in singlicate; n = 1
Assay Metric: %Inh (%)
Form entry: value (%) — number only.

Determine from records and report %Inh for Cc1cccc2c(-c3ccncn3)c(-c3ccc(F)cc3)nn12
0

Determine from records and report %Inh for Fc1ccc(-c2nn3cccc(F)c3c2-c2ccncc2)cc1
0

Determine from records and report %Inh for Fc1ccc(-c2nc[nH]c2-c2ccncc2)cc1
40

Determine from records and report %Inh for O=c1cc(N2CCOCC2)nc2n(Cc3cccc(Cl)c3Cl)c3ccccc3n12
0

Determine from records and report %Inh for COc1ccc(CSc2nnc(-c3ccc4nccn4c3)o2)cc1C(F)(F)F
13

Determine from records and report %Inh for NS(=O)(=O)c1cccc(N/C=C2\C(=O)Nc3ccc(S(=O)(=O)Cc4c(Cl)cccc4Cl)cc32)c1
2

Determine from records and report %Inh for COc1ccc(Nc2nccc(-c3ccc(NC(=O)c4cc5cc(F)ccc5[nH]4)cc3)n2)cc1
0

Determine from records and report %Inh for Cc1ccc(NC(=O)Nc2ccc(Cl)cc2)cc1-c1ccc(C(=O)Nc2ccncc2)cc1
0

Determine from records and report %Inh for CNCc1ccc2nc(NC(=O)c3ccc(C(C)(C)C)cc3)cn2c1
22

----------
Tested on: CSF1R-autoinhibited
Measurement Conditions: concentration: 1 μM, replicates: in singlicate; n = 1
Assay Metric: %Inh

Determine from records and report %Inh for CS(=O)(=O)CCNCc1nc(-c2ccc3ncnc(Nc4ccc5c(cnn5Cc5ccccc5)c4)c3c2)cs1.Cl.Cl
39%

Determine from records and report %Inh for COc1ccc(Nc2nccc(N3CCC(NC(=O)C(C)c4ccc(Cl)cc4)CC3)n2)cc1 (centres unmarked)
0%

Determine from records and report %Inh for Fc1ccc(-c2nn3cccc(F)c3c2-c2ccncc2)cc1
0%

Determine from records and report %Inh for NS(=O)(=O)c1cccc(N/C=C2\C(=O)Nc3ccc(S(=O)(=O)Cc4c(Cl)cccc4Cl)cc32)c1
0%

Determine from records and report %Inh for CC(=O)c1cccc(NC(=O)NC2CCN(c3ccnc(Nc4ccc(F)cc4)n3)C2)c1 (centres unmarked)
33%

Determine from records and report %Inh for Fc1ccc(-c2nc3n(c2-c2ccncc2)CCS3)cc1
0%

Determine from records and report %Inh for Cn1cncc1C(=O)NC1CCN(c2ccnc(Nc3ccc(F)cc3)n2)C1 (centres unmarked)
0%

Determine from records and report %Inh for COc1cccc(NC(=O)Nc2ccc(C)c(-c3ccc(C(=O)Nc4ccncc4)cc3)c2)c1
0%

----------
Test system: CDK7;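 further: kd values determined as follow-up on hits from a single-replicate KINOMEscan panel screen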
Assay Metric: Kd (nM)
Form entry: value (nM) — number only.

Determine from records and report Kd for O=C(Nc1n[nH]c2nc(-c3ccco3)c(Br)cc12)C1CCN(Cc2ccccc2)C1.O=C(O)[C@H](O)[C@@H](O)C(=O)O (centres unmarked) [SB-742034]
1100

----------
Test system: RIOK3
Measurement Conditions: concentration: 1 μM, replicates: in singlicate; n = 1
Threshold check on %Inh: strictly below 5% is TRUE; on or above 5% is FALSE.

Quick check: %Inh of Cc1ccc(-c2nc(Nc3ccncc3)c3ccccc3n2)s1 under 5%?
FALSE

Quick check: %Inh of O=c1cc(N2CCOCC2)nc2n(Cc3ccccc3F)ccn12 under 5%?
FALSE

Quick check: %Inh of O=c1cc(N2CCOCC2)nc2n(Cc3cccc(Cl)c3Cl)c3ccccc3n12 under 5%?
FALSE

Quick check: %Inh of CS(=O)(=O)CCNCc1nc(-c2ccc3ncnc(Nc4ccc5c(cnn5Cc5ccccc5)c4)c3c2)cs1.Cl.Cl under 5%?
TRUE

Quick check: %Inh of CC(C)c1cc(-c2ccc3c(N)n[nH]c3c2)nc(N)n1 under 5%?
FALSE

Quick check: %Inh of Cn1cnc2c(N)ncnc21 under 5%?
TRUE

Quick check: %Inh of Cn1cncc1C(=O)NC1CCN(c2ccnc(Nc3ccc(F)cc3)n2)C1 (stereo not shown) under 5%?
TRUE

Quick check: %Inh of Nc1cccc(-c2ccc3c(N)n[nH]c3c2)n1 under 5%?
FALSE

Quick check: %Inh of Fc1ccc(-c2nc[nH]c2-c2ccncc2)cc1 under 5%?
TRUE

Quick check: %Inh of COC(=O)C(NC(=O)NC1CCN(c2ccnc(Nc3ccc(F)cc3)n2)C1)c1ccccc1 (stereo not shown) under 5%?
TRUE

Quick check: %Inh of CCn1c(-c2ccccc2)nc2cnccc21 under 5%?
TRUE

Quick check: %Inh of CC(=O)c1c(C)c2cnc(Nc3ccc(N4CCNCC4)cn3)nc2n(C2CCCC2)c1=O under 5%?
TRUE
